Each recorded value in this set is attributed to PubChem BioAssay AID1645868.

- Target Or System: OTU domain-containing protein 3 (Homo sapiens) (UniProt Q5T2D3)
- Sequence (Q5T2D3 whole entry, looked up, the tested form may be a part): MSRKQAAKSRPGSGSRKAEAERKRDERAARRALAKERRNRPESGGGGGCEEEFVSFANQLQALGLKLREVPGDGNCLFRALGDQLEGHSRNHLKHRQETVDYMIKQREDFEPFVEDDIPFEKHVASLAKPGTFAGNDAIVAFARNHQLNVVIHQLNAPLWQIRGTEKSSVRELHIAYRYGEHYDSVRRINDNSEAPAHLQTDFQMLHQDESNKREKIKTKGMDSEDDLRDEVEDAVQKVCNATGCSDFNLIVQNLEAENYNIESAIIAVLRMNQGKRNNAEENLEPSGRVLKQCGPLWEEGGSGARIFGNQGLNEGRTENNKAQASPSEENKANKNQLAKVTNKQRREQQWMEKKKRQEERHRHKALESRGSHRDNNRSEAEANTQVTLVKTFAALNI
- Assay Text: Validation of screening hits, potency titration, in vitro enzymatic, OTU domain-containing protein 3 DUB inhibitors (AID 1645868)
- Experimental Context: purified OTUD3, ubiquitin-rhodamine cleavage fluorescence, 2 h
The source made the active and inactive calls.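 The calls were made as follows: active = maximal percent inhibition of the deubiquitinase OTUD3 of at least 30% across the tested doses; inactive = the rest.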
Your reply should match one of these outcome classes. active, inactive

Compound	Group Label
COc1ccc(CC(=O)Nc2ccc3nc(N4CCOCC4)cc(C)c3c2)cc1	inactive
Cc1ccc(CNC(=O)Cn2cnc3c(cnn3-c3cccc(Cl)c3)c2=O)cc1	inactive
O=C(Nc1ccc2c(c1)OCCO2)c1ccc(N2CCCC2=O)cc1	inactive

Turning to the following compound.
Exercise: Recorded test outcome, item Cc1ccc(C2c3cccn3CCN2C(=O)Nc2ccccc2)cc1 (stereo not given)
Key: inactive

###

- Target Or System: OTU domain-containing protein 3 (Homo sapiens)
- Assay Text: Validation of screening hits, potency titration, in vitro enzymatic, OTU domain-containing protein 3 DUB inhibitors (AID 1645868)
- Experimental Context: purified OTUD3, ubiquitin-rhodamine cleavage fluorescence, 2 h
The source made the active and inactive calls.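 Rule for the calls: active = maximal percent inhibition of the deubiquitinase OTUD3 of at least 30% across the tested doses; inactive = the rest.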
Your reply should match one of these outcome classes. T = active, F = inactive

Worked examples follow.
Line Notation	Target Or System	Group Label
COCCNC(=O)c1ccn(-c2ccc3ccc(-c4ccncc4)cn23)n1	OTU domain-containing protein 3 (Homo sapiens)	F
CC(=O)c1cccc(NC(=O)c2ccc(-c3csc(C)n3)cc2)c1	OTU domain-containing protein 3 (Homo sapiens)	F

Exercise: Recorded test outcome, item Fc1cccc(-n2cc(-c3noc(-c4ccccn4)n3)nn2)c1
Key: T

Exercise: Recorded test outcome, item COc1ccc(-c2nc(Cn3nnc(C(=O)Nc4ccc(C)c(C)c4)c3N)c(C)o2)cc1
Key: T

Exercise: Recorded test outcome, item O=C(Cn1cnc(-c2noc(-c3ccncc3)n2)c1)N1CCN(c2ccccc2F)CC1
Key: F

Exercise: Recorded test outcome, item COc1ccc(NC(=O)c2ccc(-n3nnnc3SC)cc2)cc1Cl
Key: F

###

- Target Or System: OTU domain-containing protein 3 (Homo sapiens) (UniProt Q5T2D3)
- Assay Text: Validation of screening hits, potency titration, in vitro enzymatic, OTU domain-containing protein 3 DUB inhibitors (AID 1645868)
- Experimental Context: purified OTUD3, ubiquitin-rhodamine cleavage fluorescence, 2 h
Active and inactive are the calls of the source.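 Rule for the calls: active = maximal percent inhibition of the deubiquitinase OTUD3 of at least 30% across the tested doses; inactive = the rest.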
Your reply should match one of these outcome classes. active, inactive

Molecule	Group Label
O=C1C[C@@H]2O[C@H](CNC(=O)[C@@H]3CN(CCN3C(=O)C3CCOCC3)C(=O)[C@@H]3C[C@@H](CN3Cc3ccc(F)c(F)c3)N1)[C@@H](O)[C@H]2O	inactive
COCCCN1CCS(=O)(=O)c2c(Cl)c(F)nc(Oc3ccccc3F)c21	inactive
Cc1ccc(C(=O)Nc2c(C(=O)N3CCN(c4ccccc4)CC3)[nH]c3ccccc23)cc1	inactive

Exercise: Recorded test outcome, item CCOc1ccc(NC(=O)Cn2c(=O)n(CCC(=O)NCc3ccco3)c(=O)c3ccccc32)cc1
Key: active

Exercise: Recorded test outcome, item CCn1ccc2c(cc(C(=O)Nc3ccccc3F)n2C)c1=O
Key: inactive

Exercise: Recorded test outcome, item Cc1nn(C)c2c1[C@@H](c1ccc(F)cc1)[C@H](NC(=O)c1ccccc1)C(=O)N2
Key: inactive

Exercise: Recorded test outcome, item O=C(Nc1cc(-c2cccnc2)no1)c1ccc(F)c(F)c1
Key: active

Exercise: Recorded test outcome, item CCn1cnc2c1c(=O)n(CC(=O)NCc1ccccc1Cl)c(=O)n2Cc1ccccc1
Key: inactive

Exercise: Recorded test outcome, item O=C(Nc1nnc(C2CC2)s1)c1ccc(OCC2CCCO2)cc1 (stereo unspecified)
Key: inactive

Exercise: Recorded test outcome, item O=C(Nc1ccc2c(c1)OCCO2)C1CCC(Cn2cnc3ccccc3c2=O)CC1 (stereo unspecified)
Key: inactive

Exercise: Recorded test outcome, item COc1ccc(NCc2nc3ccccc3n2Cc2ccccc2)cc1
Key: inactive

Exercise: Recorded test outcome, item NS(=O)(=O)c1ccc(Cl)c(C(=O)OCc2csc(Nc3ccccc3)n2)c1
Key: inactive

Exercise: Recorded test outcome, item COc1ccc(C(=O)CSc2ccc3nnc(CCNC(=O)c4ccc(OC)cc4)n3n2)cc1
Key: inactive

Exercise: Recorded test outcome, item COc1ccc(NC(=O)CC(=O)c2ccc([N+](=O)[O-])cc2)cc1S(=O)(=O)Nc1ccc(Br)cc1
Key: active

Exercise: Recorded test outcome, item COc1ccc(C(C(=O)NCc2ccccc2)N(C(=O)CCN2CCc3ccccc32)c2ccc(C)c(C)c2)cc1 (stereo unspecified)
Key: inactive

Exercise: Recorded test outcome, item NS(=O)(=O)c1cccc(NC(=O)CN2CCCc3ccccc32)c1
Key: inactive

Exercise: Recorded test outcome, item CC(c1ccccc1)n1c(-c2ccc(F)cc2)nc2c(c(=O)c3ccccc3n2C)c1=O (stereo unspecified)
Key: active

Exercise: Recorded test outcome, item CC(=O)Nc1cc(-c2cccc(O)c2)cn2c(-c3cnn(C)c3)cnc12
Key: inactive

Exercise: Recorded test outcome, item CC(=O)N1CCc2cc(S(=O)(=O)NCc3ccc(C)cc3)ccc21
Key: inactive

Exercise: Recorded test outcome, item CCOCCCn1c(SCC(=O)Nc2ccccc2C(F)(F)F)nc2ccccc2c1=O
Key: active

Exercise: Recorded test outcome, item Cc1nn(-c2cccc(F)c2)c2c1c(C)c(CCC(=O)NCc1ccccn1)c(=O)n2C
Key: inactive

Exercise: Recorded test outcome, item COC(=O)c1c(C)[nH]c(C(=O)C(C)OC(=O)CCC2CCCC2)c1C (stereo unspecified)
Key: inactive
